System: PmTbr T-box DNA-binding domain (GST fusion);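 note: 200 nM protein in PBS on universal arrays averaged over duplicate arrays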
Sequence: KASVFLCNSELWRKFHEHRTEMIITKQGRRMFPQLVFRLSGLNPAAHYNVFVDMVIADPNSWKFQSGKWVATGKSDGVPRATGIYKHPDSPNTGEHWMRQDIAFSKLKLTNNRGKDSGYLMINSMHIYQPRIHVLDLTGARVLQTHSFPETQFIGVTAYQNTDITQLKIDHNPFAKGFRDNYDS
Assay: PBM E-score of 8-mer (E-score (dimensionless, -0.5 to 0.5)); Tbr is Tbrain of the sea star Patiria miniata (Pm) or the sea urchin Strongylocentrotus purpuratus (Sp); higher = stronger binding preference
Conditions: the construct has about 5 more residues each side
The full ranking holds about 33,000 sequences; the median of “E-score (dimensionless, -0.5 to 0.5)” is about -0.049, and the highest 2% start at about 0.37. The list comes from a sample in which the highest values are over-represented; it also holds close analogues and randomly drawn sequences.
# PBM E-score of 8-mer per record follows

The examples below pair each entry with its known result.
CGGTGGGA = -0.0368
AGGTGGTC = -0.0579
TGAGCAAA = 0.0705
AGGCGACG = 0.268
AATTCATA = -0.105
AGGTGGTG = 0.385
CGCCTGAG = 0.0681
ATTCTTTG = -0.109

Any idea what its PBM E-score of 8-mer is? The sequence is "TGCGACAA"
0.296

Next sequence up: "ACTAACAC"
0.412

Next sequence up: "CAATAGCG"
0.118
